Numbers sourced from the supplement of paper PMC8728848.

Biological target: Gal3S(b1-4)[Fuc(a1-3)]GlcNAc6S
Experiment: glycan array binding signal (z-score within array); higher = stronger binding
Conditions: glycan notation: IUPAC condensed, linker removed
The entries come from a sample that favours the strongest signals as a whole.
measured.metric: glycan array binding signal (z-score)
Numbers only.

Example results:
SynCAM (Mus musculus) (protein) MASAVLPSGSQCAAAAAVAAAAAPPGLRLRLLLLLLSAAALIPTGDGQNLFTKDVTVIEGEVATISCQVNKSDDSVIQLLNPNRQTIYFRDFRPLKDSRFQLLNFSSSELKVSLTNVSISDEGRYFCQLYTDPPQESYTTITVLVPPRNLMIDIQKDTAVEGEEIEVNCTAMASKPATTIRWFKGNKELKGKSEVEEWSDMYTVTSQLMLKVHKEDDGVPVICQVEHPAVTGNLQTQRYLEVQYKPQVHIQMTYPLQGLTREGDAFELTCEAIGKPQPVMVTWVRVDDEMPQHAVLSGPNLFINNLNKTDNGTYRCEASNIVGKAHSDYMLYVYDPPTTIPPP :: 1.22
LSECtin (Homo sapiens), Q6UXB4 (protein) MDTTRYSKWGGSSEEVPGGPWGRWVHWSRRPLFLALAVLVTTVLWAVILSILLSKASTERAALLDGHDLLRTNASKQTAALGALKEEVGDCHSCCSGTQAQLQTTRAELGEAQAKLMEQESALRELRERVTQGLAEAGRGREDVRTELFRALEAVRLQNNSCEPCPTSWLSFEGSCYFFSVPKTTWAAAQDHCADASAHLVIVGGLDEQGFLTRNTRGRGYWLGLRAVRHLGKVQGYQWVDGVSLSFSHWNQGEPNDAWGRENCVMMLHTGLWNDAPCDSEKDGWICEKRHNC :: -0.133
Gal 1 (Mus musculus), P16045 (protein) MACGLVASNLNLKPGECLKVRGEVASDAKSFVLNLGKDSNNLCLHFNPRFNAHGDANTIVCNTKEDGTWGTEHREPAFPFQPGSITEVCITFDQADLTIKLPDGHEFKFPNRLNMEAINYMAADGDFKIKCVAFE :: 2.69
Arath Fbox LD (Arabidopsis thaliana) (protein) EFSVWLEKASGKRCLMLSAMNLSIIWGDNPQYWQWIPIPESRFEKVAKLRDVCWFEIRGRTNTRVLSPRTRYSAYIVFKGVDKCYGFQNVAIEAAVGVVGQEPSRRLICFSEAIRRGRRNVVKPKQREDGWMEIELGEFFNDGGIMDNDEIEMSALETKQLNRKCGLIIQGIEIRPAKILAAASFLEQKLISEEDLNSAVDHHHHHH :: 3.79
CrataBL (Crataeva tapia), C0HJA4 (protein) AILTGVPYYILPSTSRAGFSPDNLRKNTSQLSCPLDLITQLRFPRRIGVPVIFTPQNSSLKVVPLSHNLNIHTCSDLWFCPESKIWTVKSSLTHGGSVVTTGGTFRSLGSWFRIERHGDSYKLVHCPRGSTPCRDVGIETVGGGGRRYLAPRDRPLAVRFTRASG :: 5.22

Alright, here's another binder for you.
*Q* Sample CLECb-Precomplexed (Mus musculus), P43025 (protein) MAKNGLVLCILVVSLLLDQTDGYPSRMKARKHSKRRVKAKDDDLKSQVEKLWREVNALKEMQALQTVCLRGTKVHKKCYLASEGLKHYHEANEDCISKGGTLVVPRNSDEINALRDYGKRSLPGVNDFWLGINDMVTEGKFLDVHGFAVSFLNWDRAQPSGGKRENCVLFSQSAQGKWSDEACRSSKRYICEFIIPTRTRPLEQKLISEEDLAANDILDYKDDDDKV — what was its glycan array binding signal (z-score)?
*A* 0.004
